# IC50 annotations
biological target: BRD4 BD2 (Homo sapiens, UniProt O60885); assay: AlphaScreen binding assay, BRD4 Bromodomain 2

Record excerpt, results attached:
MOLECULE | IC50
COc1ccccc1OC(=O)N1C[C@H](C)N(C(C)=O)c2ccc(-c3cnn(C4CC4)c3)cc21 [Example I-258] | < 50 nM
COCCn1cc(-c2ccc3c(c2)N(C(=O)OC(C)C)C[C@H](C)N3C(C)=O)cn1 [Example I-17] | < 50 nM
COc1ccc(-c2ccc3c(c2)N(C(=O)OC2CCCCC2)C[C@H](C)N3C(C)=O)cc1NS(C)(=O)=O [Example I-1271] | 50 to 500 nM
CC(=O)N1c2ccccc2N(C(=O)CSc2ccccc2)C[C@@H]1C [Example I-727] | > 500 nM
COC(=O)N1c2ccc(-c3ccc(C(=O)NCCN)cc3)cc2N(C(=O)OC(C)C)C[C@@H]1C [Example I-489] | > 500 nM

Task: Name the recorded IC50 for CC(=O)N1c2ccc(-c3cnn(C4CC4)c3)cc2N(C(=O)Oc2cc(C)ccc2F)C[C@@H]1C [Example I-1198] .
Result: 50 to 500 nM

Task: Recorded IC50 for COC(=O)N1c2ccc(-c3cnn(CCN4CCCS4(=O)=O)c3)cc2N(C(=O)OC(C)C)C[C@@H]1C [Example I-626] , please?
Result: 50 to 500 nM

---

Measured pIC50 accompanies every entry in the list below.
target: BRD4 BD2 (Homo sapiens, UniProt O60885); test: AlphaScreen binding assay, BRD4 Bromodomain 2
pIC50: −log10 of the molar value.

Below are worked cases with known answers.
COMPOUND | pIC50
CC(=O)N1c2ccc(-c3cnn(C4CCCS(=O)(=O)C4)c3)cc2N(C(=O)OC2CCC2)C[C@@H]1C (some centres unmarked) | > 7.30
CC(=O)N1c2ccc(-c3cnn(C4COC4)c3)cc2N(C(=O)C2(C)CC2)C[C@@H]1C | 6.30 to 7.30
CC(=O)N1c2ccc(-c3ccc(S(C)(=O)=O)cc3)cc2N(C(=O)OCc2ccccc2)C[C@@H]1C | < 6.30
CC(C)OC(=O)N1C[C@H](C)N(C(=O)C2CC2)c2ccc(-c3cnn(CC4COC4)c3)cc21 | 6.30 to 7.30

Task: Recall the recorded pIC50 for CC(=O)N1c2ccc(-c3cncn3C)cc2N(C(=O)c2ccco2)C[C@@H]1C with BRD4 BD2 (Homo sapiens, UniProt O60885) and state it.
Result: 6.30 to 7.30

Task: Field: pIC50 (BRD4 BD2 (Homo sapiens, UniProt O60885)). Entry: C[C@H]1CN(C(=O)C2CC2)c2cc(-c3cn(C)nn3)ccc2N1C(=O)C1CC1
Result: 6.30 to 7.30

Task: Requested read-out pIC50, target or system BRD4 BD2 (Homo sapiens, UniProt O60885), entry COC(=O)N1c2ccc(-c3cnn(C4CNC4)c3)cc2N(C(=O)OC(C)C)C[C@@H]1C
Result: 6.30 to 7.30

Task: Request - read-out pIC50 | tested on BRD4 BD2 (Homo sapiens, UniProt O60885) | compound COc1ccc(S(=O)(=O)N2C[C@H](C)N(C(C)=O)c3ccccc32)c(OC)c1
Result: < 6.30

---

Biological target: BRD4 BD2 (Homo sapiens)
Assay: AlphaScreen binding assay, BRD4 Bromodomain 2
Protocol: The binding of Example compounds to BRD4 Bromodomain 1 and BRD4 Bromodomain 2 was assessed using 384-well AlphaScreen assay technology. His-epitope tagged BRD4 BD144-168 and BRD4 BD2333-460 were cloned, expressed, and purified to homogeneity. BRD4 BD1 and BRD4 BD2 binding and inhibition was assessed by monitoring the engagement of biotinylated Histone H4 (1-21) K5/8/12/16 tetra-acetylated peptide with the targets using the AlphaScreen technology (PerkinElmer). […]
pIC50: −log10 of the molar value.
Recorded pIC50 values for a group of compounds are listed next.

Past entries and their recorded results:
QUERY SMILES | READING
CC(=O)N1c2ccc(-c3ccc(S(=O)(=O)N(C)C)cc3)cc2N(C(=O)OC2CCCCC2)C[C@@H]1C | 6.30 to 7.30
CC(=O)N1c2ccc(-c3cnn(CC#N)c3)cc2N(C(=O)OC(C)C)C[C@@H]1C | 6.30 to 7.30
CC(=O)N1c2ccccc2N(Cc2ccc(C(F)(F)F)nc2)C[C@@H]1C | < 6.30
CC(=O)N1c2ccc(-c3cnn(Cc4cc(C)no4)c3)cc2N(C(=O)C2CC2)C[C@@H]1C | 6.30 to 7.30
CC(=O)N1c2ccc(-c3ccc(S(=O)(=O)NCCO)cc3)cc2N(C(=O)C2CCC2)C[C@@H]1C | 6.30 to 7.30
COC(=O)N1c2ccc(-c3cnn(CC4(C)COC4)c3)cc2N(C(=O)OC(C)C)C[C@@H]1C | 6.30 to 7.30

Task: Reported pIC50 for CC(=O)N1c2ccc(-c3cnn(CCS(C)(=O)=O)c3)cc2N(C(=O)Oc2ccc(F)cc2)C[C@@H]1C : what is it?
Result: < 6.30
